- Tested on: UGT2B
- test details: in vitro
- experimental parameters: male, Sprague-Dawley, rat, % Inhibition (Mean ± SD)
- Procedure: In the following experiment, 27 different kinds of CHEs and 10 different excipients were used as UGT2B inhibitor in this invention. […] The protein amount is determined as follows: • i. […] Measure the absorbance at 550 nm wave length within the 30 min. Measure the concentration of protein in microsome based on the standard curve generated by various bovine albumin concentration and absorbance. […]
Returns Condition met if the recorded inhibition at 60 min, 85 μM is greater than or equal to -20%, and Condition not met otherwise.

Please review the following examples before continuing.
O=c1ccc2ccc(O)cc2o1 [umbelliferone, Umbelliferone] ... Condition met
O=C1CC(c2ccc(O)c(O)c2)Oc2cc(O)cc(O)c21 (centres unmarked) [eriodictyol, Eriodictyol] ... Condition met
Oc1cc(O)c2c(c1)OC(c1ccc(O)c(O)c1)[C@@H](O)C2 (single isomer, unassigned; (+)) [(+)-catechin, (+)-Catechin] ... Condition not met
COc1cc(O)c2c(=O)cc(-c3ccc(O)cc3)oc2c1 [genkwanin] ... Condition not met

Enquiry: Say whether COc1ccc([C@@H]2CC(=O)c3c(O)cc(O[C@@H]4O[C@H](CO[C@@H]5O[C@@H](C)[C@H](O)[C@@H](O)[C@H]5O)[C@@H](O)[C@H](O)[C@H]4O)cc3O2)cc1O [hesperidin, Hesperidin] shows inhibition at 60 min, 85 μM of -20% or more.
Return: Condition not met

Enquiry: Say whether O=c1cc(-c2ccc(O)c(O)c2)oc2cc(O)cc(O)c12 [luteolin, Luteolin] shows inhibition at 60 min, 85 μM of -20% or more.
Return: Condition not met

Enquiry: Say whether CC(=O)OCCCc1ccccc1 [3-phenylpropyl acetate, 3-Phenylpropyl Acetate] shows inhibition at 60 min, 85 μM of -20% or more.
Return: Condition met

Enquiry: Say whether O=C/C=C/c1ccccc1 [trans-cinnamaldehyde, Trans- Cinnamaldehyde] shows inhibition at 60 min, 85 μM of -20% or more.
Return: Condition met
